System: HCMV recombinant mutant virus whose genome contains the prokaryotic beta-glucuronidase gene
Test: microbe, parasite or virus in culture
Format: cell-based, human cytomegalovirus
Details: Human betaherpesvirus 5, Fibroblast, read-out: IC50 ug/ml HCMV, HCMV, human foreskin fibroblasts
endpoint_label: IC50 (µg/mL)

compound: COc1ccc(NC(=S)Nc2ccc(NC(=O)c3ccccc3)cc2)cc1Cl [Example 817]
unit_descriptor: µg/mL
operator: =
obs_value: 2

compound: COc1ccccc1C(=O)Nc1ccc(NC(=S)Nc2cc(Cl)c(OC)c(Cl)c2)cc1 [Example 873]
unit_descriptor: µg/mL
operator: =
obs_value: 0.3

compound: CC(=O)Oc1ccc(C(=O)Nc2ccc(NC(=S)NC(C)c3ccc(F)cc3)cc2)cc1 (centres unmarked) [Example 757]
unit_descriptor: µg/mL
operator: >
obs_value: 10

compound: O=C(Nc1ccc(NC(=S)NCCOc2ccc(Br)cc2)cc1)c1ccccc1F [Example 695]
unit_descriptor: µg/mL
operator: >
obs_value: 3

compound: CC(NC(=S)Nc1ccc(NC(=O)c2nccc3ccccc23)cc1)c1cc2ccccc2o1 (centres unmarked) [Example 977]
unit_descriptor: µg/mL
operator: >
obs_value: 10

compound: COc1cc(OC)c(NC(=S)Nc2ccc(NC(=O)c3cccc(NS(C)(=O)=O)c3)cc2)cc1Cl [Example 137]
unit_descriptor: µg/mL
operator: =
obs_value: 10

compound: O=C(Nc1ccc(NC(=S)Nc2cc(N3CCOCC3)cc(C(F)(F)F)c2)cc1)c1ccccc1F [Example 568]
unit_descriptor: µg/mL
operator: >
obs_value: 0.5

compound: CN(C)c1cccc(NC(=S)Nc2ccc(NC(=O)c3ccccc3F)cc2)c1 [Example 454]
unit_descriptor: µg/mL
operator: =
obs_value: 4

====

Tested on: VZV strain Ellen
Assay: VZV antiviral (ELISA) assay
Format: cell-based
Conditions: Human alphaherpesvirus 3; VZV strain Ellen, HFF cells, ELISA; read-out: IC50 (ug/ml) VZV
The label is fulfilled for IC50 below 3 µg/mL and not fulfilled for IC50 equal to or exceeding 3 µg/mL.

molecule: O=C(Nc1ccc(NC(=S)Nc2cc(Cl)c(Cl)c(Cl)c2)cc1)c1ccccc1F
answer_label: not fulfilled
//
molecule: CC(NC(=S)Nc1ccc(NC(=O)c2ccc(O)cc2)cc1)c1ccc(F)cc1 (stereo not drawn)
answer_label: not fulfilled
//
molecule: O=C(Nc1ccc(NC(=S)NCCc2ccccc2)cc1)c1ccccc1F
answer_label: not fulfilled
//
molecule: O=C(O)c1cccc(NC(=S)Nc2ccc(NC(=O)c3ccccc3F)cc2)c1
answer_label: not fulfilled
//
molecule: O=C(Nc1ccc(NC(=S)Nc2ccc(Br)c(Cl)c2)cc1)c1ccccc1F
answer_label: not fulfilled
//
molecule: CC(NC(=S)Nc1ccc(NC(=O)c2ccc(C#N)cc2)cc1)c1ccc(F)cc1 (stereo not drawn)
answer_label: fulfilled
//
molecule: O=C(Nc1ccc(NC(=S)NC(CO)c2ccccc2)cc1)c1ccccc1F (stereo not drawn)
answer_label: fulfilled
//
molecule: O=C(Nc1ccc(NC(=S)NCCc2ccc(F)cc2)cc1)c1ccccc1F
answer_label: not fulfilled
//
molecule: O=C(Nc1ccc(NC(=S)NCc2ccc3c(c2)OCO3)cc1)c1ccccc1F
answer_label: not fulfilled
//
molecule: O=C(Nc1ccc(NC(=S)NCCc2cccc(F)c2)cc1)c1ccccc1F
answer_label: not fulfilled
//
molecule: COC(=O)c1cccc(NC(=S)Nc2ccc(NC(=O)c3ccccc3F)cc2)c1
answer_label: not fulfilled
//
molecule: CC(NC(=S)Nc1ccc(NC(=O)c2ccccc2C#N)cc1)c1ccc(F)cc1 (stereo not drawn)
answer_label: fulfilled
//
molecule: O=C(Nc1ccc(NC(=S)Nc2ccccc2)cc1)c1ccccc1F
answer_label: not fulfilled
//
molecule: CC(NC(=S)Nc1ccc(NC(=O)c2ccc(C(F)(F)F)cc2)cc1)c1ccc(F)cc1 (stereo not drawn)
answer_label: fulfilled
//
molecule: COc1ccc(NC(=S)Nc2ccc(NC(=O)c3ccccc3F)cc2)cc1F
answer_label: not fulfilled
//
molecule: O=C(Nc1ccc(NC(=S)Nc2cccc(CO)c2)cc1)c1ccccc1F
answer_label: not fulfilled
//
molecule: CC(NC(=S)Nc1ccc(NC(=O)c2ccccc2C(F)(F)F)cc1)c1ccc(F)cc1 (stereo not drawn)
answer_label: fulfilled

====

Tested on: HCMV recombinant mutant virus whose genome contains the prokaryotic beta-glucuronidase gene
Assay: microbe, parasite or virus in culture
Format: cell-based, human cytomegalovirus
Details: Human betaherpesvirus 5, Fibroblast, read-out: IC50 ug/ml HCMV, HCMV, human foreskin fibroblasts

compound: O=C(Nc1ccc(NC(=S)NCCc2cccc(Cl)c2)cc1)c1ccccc1F
operator: >
IC50, µg/mL: 0.5

compound: CSc1ccc(NC(=S)Nc2ccc(NC(=O)c3ccccc3F)cc2)cc1Cl
operator: =
IC50, µg/mL: 0.3

compound: O=C(CN1CCCC1)Nc1ccc(NC(=S)Nc2ccc(NC(=O)c3ccccc3F)cc2)cc1Cl
operator: >
IC50, µg/mL: 10

compound: COc1cc(OC)c(NC(=S)Nc2ccc(NC(=O)c3cccc(OCc4ccccc4)c3)cc2)cc1Cl
operator: >
IC50, µg/mL: 10

compound: O=C(Nc1ccc(NC(=S)Nc2ccc(F)c(Cl)c2)cc1)c1ccccc1F
operator: >
IC50, µg/mL: 10

compound: O=C(Nc1ccc(NC(=S)Nc2ccc(Cl)c(Cl)c2)cc1)c1ccccc1F
operator: >
IC50, µg/mL: 10

compound: CSc1ccc(NC(=S)Nc2ccc(NC(=O)c3ccccc3C)cc2)cc1Cl
operator: =
IC50, µg/mL: 1.4

compound: COc1cc(OC)c(NC(=S)Nc2ccc(NC(=O)c3cc(F)ccc3F)cc2)cc1Cl
operator: >
IC50, µg/mL: 10

compound: COc1cc(OC)c(NC(=S)Nc2ccc(NC(=O)c3c(F)c(F)c(F)c(F)c3F)cc2)cc1Cl
operator: >
IC50, µg/mL: 10

compound: COc1cccc(C(=O)Nc2ccc(NC(=S)Nc3ccc(N(C)C4CCCCC4)c(Cl)c3)cc2)c1
operator: >
IC50, µg/mL: 10

compound: CC(NC(=S)Nc1ccc(NC(=O)c2ccccc2F)cc1)c1cccc(Br)c1 (stereo not drawn)
operator: =
IC50, µg/mL: 1

compound: Cc1ccc(NC(=S)Nc2ccc(NC(=O)c3ccccc3F)cc2Cl)cc1Cl
operator: >
IC50, µg/mL: 10

compound: CCN(CC)CC(=O)Nc1ccc(NC(=S)Nc2ccc(NC(=O)c3ccccc3F)cc2)cc1Cl
operator: >
IC50, µg/mL: 10

compound: COc1cccc(C(=O)Nc2ccc(NC(=S)Nc3ccc(C)c(Cl)c3)cc2)c1
operator: >
IC50, µg/mL: 10

compound: Nc1c(Cl)cc(NC(=S)Nc2ccc(NC(=O)c3ccccc3F)cc2)cc1Cl
operator: =
IC50, µg/mL: 4

compound: O=C(Nc1ccc(NC(=S)Nc2ccc(Cl)c(C(F)(F)F)c2)cc1)c1c(F)cccc1F
operator: >
IC50, µg/mL: 10

compound: CCOC(=O)Nc1cccc(C(=O)Nc2ccc(NC(=S)Nc3cc(Cl)c(OC)cc3OC)cc2)c1
operator: =
IC50, µg/mL: 1.5

compound: Cc1ccc(NC(=S)Nc2ccc(NC(=O)c3ccccc3C)cc2)cc1Cl
operator: =
IC50, µg/mL: 1

compound: CC(NC(=S)Nc1ccc(NC(=O)c2cccc3cccnc23)cc1)c1ccc(F)cc1 (stereo not drawn)
operator: =
IC50, µg/mL: 7.4

compound: O=C(Nc1ccc(NC(=S)NCCOc2cc(Cl)cc(Cl)c2)cc1)c1ccccc1F
operator: >
IC50, µg/mL: 0.5

compound: COc1cc(OC)c(NC(=S)Nc2ccc(NC(=O)c3c(F)cccc3F)cc2)cc1Cl
operator: =
IC50, µg/mL: 4

compound: Cc1ccccc1C(C)NC(=S)Nc1ccc(NC(=O)c2ccccc2F)cc1 (stereo not drawn)
operator: =
IC50, µg/mL: 1

compound: O=C(Nc1ccc(NC(=S)NCc2ccc(F)c(Cl)c2)cc1)c1ccccc1F
operator: >
IC50, µg/mL: 0.5

compound: CC(NC(=S)Nc1ccc(NC(=O)c2ccccc2F)cc1)c1ccc(S(=O)(=O)N2CCCCC2)cc1 (stereo not drawn)
operator: >
IC50, µg/mL: 10

compound: CC(NC(=S)Nc1ccc(NC(=O)c2ccccc2F)cc1)c1cc2ccccc2o1 (stereo not drawn)
operator: =
IC50, µg/mL: 2.1

compound: O=C(Nc1ccc(NC(=S)Nc2ccc3scnc3c2)cc1)c1ccccc1F
operator: >
IC50, µg/mL: 10

compound: CCCCOc1cccc(C(=O)Nc2ccc(NC(=S)Nc3cc(Cl)c(OC)cc3OC)cc2)c1
operator: >
IC50, µg/mL: 10

compound: COc1ccc(C(=O)Nc2ccc(NC(=S)Nc3ccc(OC)c(Cl)c3)cc2)cc1
operator: =
IC50, µg/mL: 8

compound: CCCCNS(=O)(=O)c1cccc(NC(=S)Nc2ccc(NC(=O)c3ccccc3F)cc2)c1
operator: =
IC50, µg/mL: 2.5

compound: CCCCC(NC(=S)Nc1ccc(NC(=O)c2ccccc2F)cc1)c1ccc(F)cc1 (stereo not drawn)
operator: =
IC50, µg/mL: 1.2

compound: COc1cc(OC)c(NC(=S)Nc2ccc(NC(=O)c3ccccc3Cl)cc2)cc1Cl
operator: =
IC50, µg/mL: 6

compound: COc1cccc(C(=O)Nc2ccc(NC(=S)Nc3cc(Cl)c(OC)cc3OC)cc2)c1
operator: =
IC50, µg/mL: 5

compound: Cc1ccccc1C(=O)Nc1ccc(NC(=S)Nc2ccc(N(C)C)c(Cl)c2)cc1
operator: =
IC50, µg/mL: 2
